- TEST_SYSTEM: human PTGR2 (Homo sapiens (Human))
- TEST_NAME: Cell-based GAL4-PPAR luciferase reporter assay in HEK293T cells transfected with human PTGR2
- CONDITIONS_USED: UASG reporter, GAL4-PPAR and human PTGR2-Tag vectors, luciferase normalized to TK-Rluc
Reported EC50 values for a set of compounds
MEASURE: EC50 (nM)

- COMPOUND: "Cc1[nH]c2nc(C=C3CCN(c4ccccc4)CC3)nn2c(=O)c1Cc1cccc(Cl)c1 [Compound 34]"
  READOUT_NUMBER: 427
- COMPOUND: "CCCc1cc(=O)[nH]c(SCC(=O)N2CCN(c3nccs3)CC2)n1 [Compound 46]"
  READOUT_NUMBER: 119
- COMPOUND: "Cc1[nH]c2nc(CN3CCN(c4ccccc4)CC3)nn2c(=O)c1Cc1cccc(Cl)c1 [Compound 12]"
  READOUT_NUMBER: 233
- COMPOUND: "CCCc1cc(=O)[nH]c(SCC(=O)N2CCN(c3ccccc3OC)[C@@H](C)C2)n1 [Compound 28]"
  READOUT_NUMBER: 108
- COMPOUND: "CC(C)c1cc(=O)[nH]c(SCC(=O)N2CCN(c3nccs3)[C@@H](C)C2)n1 [Compound 2]"
  READOUT_NUMBER: 112
- COMPOUND: "Cc1[nH]c2nc(C(C)N3CCN(c4ccccc4)CC3)nn2c(=O)c1Cc1cccc(C(F)(F)F)c1 (centres unmarked) [Compound 13]"
  READOUT_NUMBER: 19.2
- COMPOUND: "Cc1ccc(Cc2c(C)[nH]c3nc(C(C)N4CCN(c5ccccc5)CC4)nn3c2=O)cc1 (centres unmarked) [Compound 17]"
  READOUT_NUMBER: 104
- COMPOUND: "COc1ccc(Cc2c(C)[nH]c3nc(C(C)N4CCN(c5ccccc5)CC4)nn3c2=O)cc1F (centres unmarked) [Compound 15]"
  READOUT_NUMBER: 64.5

###

- TEST_SYSTEM: human PTGR2 (Homo sapiens (Human))
- TEST_NAME: Cell-based GAL4-PPAR luciferase reporter assay in HEK293T cells transfected with human PTGR2
- CONDITIONS_USED: UASG reporter, GAL4-PPAR and human PTGR2-Tag vectors, luciferase normalized to TK-Rluc
Rule: EC50 below 300 nM gives Yes. Equal to or above 300 nM gives No.

- COMPOUND: "Cc1[nH]c2nc(C(C)N3CCN(c4ccccc4)CC3)nn2c(=O)c1Cc1cccc(Cl)c1 (stereo not drawn) [Compound 11]"
  GROUP_LABEL: "Yes"
- COMPOUND: "CCOc1ccccc1N1CCN(C(=O)CSc2nc(C(C)C)cc(=O)[nH]2)CC1 [Compound 63]"
  GROUP_LABEL: "Yes"
- COMPOUND: "COc1ccc(Cc2c(C)[nH]c3nc(C(C)N4CCN(c5ccccc5)CC4)nn3c2=O)cc1 (stereo not drawn) [Compound 18]"
  GROUP_LABEL: "Yes"
- COMPOUND: "Cc1[nH]c2nc(CN3CCN(c4nccs4)CC3)nn2c(=O)c1Cc1cccc(Cl)c1 [Compound 26]"
  GROUP_LABEL: "No"
- COMPOUND: "COc1ccccc1N1CCN(Cc2nc3[nH]c(C)c(Cc4ccc(Cl)cc4)c(=O)n3n2)CC1 [Compound 1]"
  GROUP_LABEL: "No"

###

- TEST_SYSTEM: human PTGR2 (Homo sapiens (Human), UniProt Q8N8N7)
- Sequence (Q8N8N7 whole entry, the tested form may be a part): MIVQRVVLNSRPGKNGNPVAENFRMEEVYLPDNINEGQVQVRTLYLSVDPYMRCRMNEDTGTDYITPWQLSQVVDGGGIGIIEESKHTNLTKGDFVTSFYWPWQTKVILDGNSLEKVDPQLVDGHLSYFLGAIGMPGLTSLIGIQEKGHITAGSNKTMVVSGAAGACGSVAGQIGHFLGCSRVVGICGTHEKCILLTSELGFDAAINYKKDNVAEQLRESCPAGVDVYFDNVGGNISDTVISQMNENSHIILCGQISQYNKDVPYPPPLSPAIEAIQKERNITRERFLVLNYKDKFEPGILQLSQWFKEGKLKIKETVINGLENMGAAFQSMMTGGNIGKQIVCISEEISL
- TEST_NAME: Cell-based GAL4-PPAR luciferase reporter assay in HEK293T cells transfected with human PTGR2
- CONDITIONS_USED: UASG reporter, GAL4-PPAR and human PTGR2-Tag vectors, luciferase normalized to TK-Rluc
pEC50: −log10 of the molar value.
Entries annotated with measured pEC50

- COMPOUND: "COc1ccccc1N1CCN(C(=O)CSc2nc(C(C)C)cc(=O)[nH]2)C[C@H]1C [Compound 53]"
  TEST_SYSTEM: "human PTGR2 (Homo sapiens (Human), UniProt Q8N8N7)"
  pEC50: 6.68
- COMPOUND: "Cc1[nH]c2nc(C(C)N3CCN(c4ccccc4)CC3)nn2c(=O)c1Cc1cc(F)c(F)cc1F (stereo not shown) [Compound 7]"
  TEST_SYSTEM: "human PTGR2 (Homo sapiens (Human), UniProt Q8N8N7)"
  pEC50: 8.15
- COMPOUND: "Cc1[nH]c2nc(C(C)N3CCN(c4ccccc4)[C@H](C)C3)nn2c(=O)c1Cc1ccc(F)cc1 (stereo partly shown) [Compound 54]"
  TEST_SYSTEM: "human PTGR2 (Homo sapiens (Human), UniProt Q8N8N7)"
  pEC50: 6.61
- COMPOUND: "Cc1[nH]c2nc(C(C)N3CCN(c4ccccc4)CC3)nn2c(=O)c1Cc1ccc(Cl)cc1 (stereo not shown) [Compound 20]"
  TEST_SYSTEM: "human PTGR2 (Homo sapiens (Human), UniProt Q8N8N7)"
  pEC50: 6.79

###

human PTGR2 (Homo sapiens (Human)): recorded IC50 for assorted molecules
MEASURE: IC50 (nM)

- MOLECULE: "Cc1[nH]c2nc(CN3CCN(c4ccccc4)CC3)nn2c(=O)c1Cc1cccc(Cl)c1F [Compound 6]"
  MEASURE: "IC50"
  UNIT_STRING: "nM"
  READOUT_NUMBER: 0.02
- MOLECULE: "Cc1[nH]c2nc(CN3CCN(c4ccccc4)CC3)nn2c(=O)c1Cc1cccc(Cl)c1 [Compound 12]"
  MEASURE: "IC50"
  UNIT_STRING: "nM"
  READOUT_NUMBER: 0.01
- MOLECULE: "Cc1[nH]c2nc(C(C)N3CCN(c4ccccc4)CC3)nn2c(=O)c1Cc1ccc(F)cc1 (stereo not shown) [Compound 19]"
  MEASURE: "IC50"
  UNIT_STRING: "nM"
  READOUT_NUMBER: 8.9
- MOLECULE: "CC(C)c1cc(=O)[nH]c(SCC(=O)N2CCN(c3nccs3)[C@@H](C)C2)n1 [Compound 2]"
  MEASURE: "IC50"
  UNIT_STRING: "nM"
  READOUT_NUMBER: 43
- MOLECULE: "Cc1[nH]c2nc(C(C)N3CCN(c4ccccc4)CC3)nn2c(=O)c1Cc1cccc(F)c1 (stereo not shown) [Compound 10]"
  MEASURE: "IC50"
  UNIT_STRING: "nM"
  READOUT_NUMBER: 7.9
- MOLECULE: "COc1ccc(Cc2c(C)[nH]c3nc(C(C)N4CCN(c5ccccc5)CC4)nn3c2=O)cc1 (stereo not shown) [Compound 18]"
  MEASURE: "IC50"
  UNIT_STRING: "nM"
  READOUT_NUMBER: 1.7
- MOLECULE: "Cc1[nH]c2nc(C(C)N3CCN(c4ccccc4)CC3)nn2c(=O)c1Cc1ccc(Cl)cc1 (stereo not shown) [Compound 20]"
  MEASURE: "IC50"
  UNIT_STRING: "nM"
  READOUT_NUMBER: 17.2

###

- TEST_SYSTEM: UniProt:Q8N8N7
- TEST_NAME: Cell-based GAL4-PPAR luciferase reporter assay in HEK293T cells transfected with human PTGR2
- CONDITIONS_USED: UASG reporter, GAL4-PPAR and human PTGR2-Tag vectors, luciferase normalized to TK-Rluc

- COMPOUND: "Cc1[nH]c2nc(C(C)N3CCN(c4ccccc4)CC3)nn2c(=O)c1Cc1ccc(F)cc1 (stereo not shown) [Compound 19]"
  EC50 / nM: 56.9
- COMPOUND: "Cc1[nH]c2nc(C(C)N3CCN(c4ccccc4)CC3)nn2c(=O)c1Cc1cccc(F)c1 (stereo not shown) [Compound 10]"
  EC50 / nM: 77.4
- COMPOUND: "COc1ccc(Cc2c(C)[nH]c3nc(C(C)N4CCN(c5ccccc5)CC4)nn3c2=O)c(F)c1 (stereo not shown) [Compound 5]"
  EC50 / nM: 40.5
- COMPOUND: "COc1ccccc1N1CCN(Cc2nc3[nH]c(C)c(Cc4cccc(Cl)c4)c(=O)n3n2)CC1 [Compound 32]"
  EC50 / nM: 174
